test system: Human immunodeficiency virus 2; test: Antiviral activity against HIV2 ROD infected in CEM/0 cells assessed as inhibition of HIV induced cytopathogenic effects; assay type: functional, organism-based; conditions: Human immunodeficiency virus 2, ROD, CCRF-CEM
pEC50: −log10 of the molar value.
Outcome measure: pEC50

In [3]: df
Out[3]:
                                        mol  result_number
0  Cc1cn([C@H]2C[C@H](F)[C@@H](CO)O2)c(=O)[nH]c1=O           8.49

---

test: Metabolic stability of the compound in mouse liver extract assessed as hydrolysis half life measured after 24 hrs in presence of mouse liver extract medium by RP-HPLC analysis; type: ADME, tissue-based
Outcome measure: half-life (min)

>>> print(df.to_string())
                                        mol  result_number
0  Cc1cn([C@H]2C[C@H](F)[C@@H](COP(=O)(O)OP(=O)(O)OP(=O)(O)O)O2)c(=O)[nH]c1=O.N.N.N.N           5.04

---

test system: Human immunodeficiency virus 2; test: Antiviral activity against […] HIV2 ROD infected in CEM-TK(-) cells assessed as inhibition of HIV induced cytopathogenic effects; assay type: functional, organism-based; settings: Human immunodeficiency virus 2, ROD
pEC50: −log10 of the molar value.
Outcome measure: pEC50

In [3]: df
Out[3]:
                                   compound                       tested_on  result_number
0  Cc1cn([C@H]2C[C@H](F)[C@@H](CO)O2)c(=O)[nH]c1=O [ALOVUDINE]  Human immunodeficiency virus 2           4.15

---

test: Chemical stability in PBS buffer assessed half life measured after 24 hrs in presence of CEM/0 cell extract medium by RP-HPLC analysis relative to control; assay type: physicochemical; details: human, PBS buffer with CEM/0 cell extract
half-life by entry:
Outcome measure: half-life (min)

In [3]: df
Out[3]:
                                   compound  units  result_number
0  Cc1cn([C@H]2C[C@H](F)[C@@H](COP(=O)(O)OP(=O)(O)OP(=O)(O)O)O2)c(=O)[nH]c1=O.N.N.N.N    min             30
1  Cc1cn([C@H]2C[C@H](O)[C@@H](COP(=O)(O)OP(=O)(O)OP(=O)(O)O)O2)c(=O)[nH]c1=O [DEOXYTHYMIDINE_TRIPHOSPHATE]    min             30

---

test: Metabolic stability of the compound in pig liver extract assessed as half life measured after 24 hrs in presence of pig liver extract medium by RP-HPLC analysis; assay type: ADME, tissue-based, Sus scrofa

Compound	half-life / s
CCCCCCCCCCCCCCCCOP(=O)(OCc1ccc(OC(=O)CCC)cc1)OP(=O)(O)OP(=O)(O)OC[C@H]1O[C@@H](n2cc(C)c(=O)[nH]c2=O)C[C@@H]1F.N.N (stereo partly specified)	34.9

---

experiment: Metabolic stability of the compound in mouse liver extract assessed as compound remaining measured after 24 hrs in presence of mouse liver extract medium by RP-HPLC analysis relative to control; format: ADME, tissue-based; details: read-out: Stability
Outcome measure: remaining at 24 h (%)

>>> df
                                        mol    outcome_measure  units  result_number
0  CCCCCCCCCCCCCCCCOP(=O)(O)OP(=O)(O)OP(=O)(O)OC[C@H]1O[C@@H](n2cc(C)c(=O)[nH]c2=O)C[C@@H]1F  remaining at 24 h      %             39

---

assay: Stability in buffer assessed as pig liver esterase-mediated clevage of first masking group half life at pH 7.3 by RP-HPLC analysis; format: ADME, tissue-based

Mol	Units	half-life
CCCCCCCCCC(=O)Oc1ccc(COP(=O)(OCc2ccc(OC(=O)CCCCCCCCC)cc2)OP(=O)([O-])OP(=O)([O-])OC[C@H]2O[C@@H](n3cc(C)c(=O)[nH]c3=O)C[C@@H]2F)cc1.[Na+].[Na+]	min	3.16

Taken from ChEMBL document CHEMBL5113536.
